experiment: Inhibition of JAK2 V617F mutant in mouse BaF3 cells assessed as reduction in cell viability incubated for 72 hrs by MTT assay
The following compounds are shown together with reported log10 IC50 values.
Answers are given as log10 of IC50 in nM.

Answered cases to consult:
# substance-smiles, log10 IC50
data = [
    ("CC(C)n1cc(-c2nc(Nc3ccc4c(c3)CCN(CCCO)C4)ncc2F)cn1", 2.59),
    ("Cc1cnc(Nc2ccc3c(c2)CCN(C/C=C/C(=O)O)C3)nc1-c1cnn(C(C)C)c1", 2.11),
    ("COC(=O)CCCN1CCc2cc(Nc3ncc(C)c(-c4cnn(C(C)C)c4)n3)ccc2C1", 2.97),
    ("COC(=O)/C=C/CN1CCc2ccc(Nc3ncc(C)c(-c4cnn(C(C)C)c4)n3)cc2C1", 2.08),
]

Please find the next compound below.
If you can, please state the reported log10 IC50 value of Cc1cnc(Nc2cc3c(cc2F)CN(CCO)CC3)nc1-c1cnn(C(C)C)c1 .
3.41
